src = PubChem BioAssay (NCI)

- Tested on: SN12C renal
- ASSAY_OVERVIEW: NCI tumour cell line growth inhibition, 48 h

# MOLECULE, TGI
rows = [
    ("NC1=NC(c2ccc(Cl)cc2)N(c2ccc(S(=O)(=O)Nc3ncccn3)cc2)C(N)=N1 (stereo not given)", "> 100 µM"),
    ("C#CCn1c(=O)ccn(/C(=C\\C(=O)OCC)C(=O)OCC)c1=O", "> 58 µM"),
    ("CCCCCCCC(=O)OC[n+]1ccc(-c2c(COC(=O)NC(C)C)c(COC(=O)NC(C)C)c3n2CCC3)cc1", "> 100 µM"),
    ("CN(CCC#N)c1ccc(/C=C(\\C#N)c2cccc(C(F)(F)F)c2)cc1", "> 100 µM"),
    ("[N-]=[N+]=Nc1ccc(NCCCCCC(=O)ON2C(=O)CCC2=O)c([N+](=O)[O-])c1", "> 100 µM"),
    ("CCCCSN1C(=O)c2ccccc2C1=S", "> 100 µM"),
    ("COc1ccc(NS(=O)c2ccc(-c3ccccc3)cc2)cc1 (stereo not given)", "> 100 µM"),
    ("Cc1oc2nc[nH]c(=O)c2c1C(=O)/C=C/c1ccc(Cl)cc1", "14.2 µM"),
    ("Nc1nc(N)c(C2=CCN(Cc3ccccc3)CC2)c(=O)[nH]1", "> 100 µM"),
    ("CC(C)N(C(=O)C12C3C4C5C3C1(C(=O)N(C(C)C)C(C)C)C5(C#N)C42)C(C)C (stereo not given)", "> 100 µM"),
    ("Clc1ccccc1C(n1ncc2ccccc21)n1ncc2ccccc21", "> 100 µM"),
    ("COc1cc(/C=N/Nc2ncnc3c2cnn3C(C)C)ccc1O", "> 25 µM"),
    ("Nc1ccc(-c2ncc3cc(-c4cccc(-c5cc6cnc(-c7ccc(N)cc7)nc6c6ccccc56)c4)c4ccccc4c3n2)cc1", "> 100 µM"),
    ("C[n+]1noc(/N=N\\[O-])c1-c1cc(-c2c(/N=N\\[O-])on[n+]2C)cc(-c2c(/N=N/[O-])on[n+]2C)c1", "> 100 µM"),
    ("Nc1nc(Cl)c(N)c(NCC2(CO)CC(Cc3ccccc3)C2)n1 (stereo not given)", "> 100 µM"),
    ("Cc1ccc(N/C(Sc2ccccc2)=C(/C(Cl)=C(Cl)Cl)[N+](=O)[O-])c(C)c1", "43.1 µM"),
    ("O=c1[nH]c(=O)n(C2CC(O)C(CO)O2)cc1OCCc1ccccc1 (stereo not given)", "> 100 µM"),
    ("O=C(c1ccco1)C1CC(c2ccc3ccccc3c2O)=NN1 (stereo not given)", "> 100 µM"),
    ("COC(=O)Nc1nc2ccc(Oc3ccc4nc(NC(=O)OC)[nH]c4c3)cc2[nH]1", "> 100 µM"),
    ("CN1CCC(CNC(=O)CCCCCCCCC(=O)NCC2(c3ccccc3)CCN(C)CC2)(c2ccccc2)CC1", "> 100 µM"),
]
